# PROTOCOL: clinical
# Assay type: in vivo, human
# DETAILS: both sexes, human, in vivo, AUC(0-inf)
METRIC_NAME: AUC(0-inf) (ng·h/mL)
Write it as a number; the unit ng·h/mL goes unstated.

- COMPOUND: "C[C@H](CCC(=O)O)[C@H]1CC[C@H]2[C@@H]3[C@@H](O)C[C@@H]4C[C@H](O)CC[C@]4(C)[C@H]3CC[C@]12C [UDCA, ursodeoxycholic acid]"
  READOUT_VALUE: 11300

Input C[C@H](CCC(=O)NCCS(=O)(=O)O)[C@H]1CC[C@H]2[C@@H]3[C@@H](O)C[C@@H]4C[C@H](O)CC[C@]4(C)[C@H]3CC[C@]12C [TURSO, taurursodiol] . Output AUC(0-inf): 3910
